Data provenance is PubChem BioAssay (NCATS).

Test details: qHTS Assay for Lipid Storage Modulators (AID 1519); further: on the % scale 0 is the no-effect control and ±100 the full control effect
Conditions used: Drosophila S3 cells, BODIPY lipid droplet/cell ratio, laser cytometry; at 25.7 µM (top of the series); cells loaded with oleic acid
Results filed as inconclusive are left out.
Measurement kind: activity change, negative = inhibition (%)
One number for each entry, in %.

Compound	activity change, negative = inhibition, %
C=C1[C@@H]2CC[C@H]3[C@@]4(C)C[C@@H](O[C@@H]5O[C@H](CO)[C@H](OS(=O)(=O)O)[C@@H](OS(=O)(=O)O)[C@@H]5OC(=O)CC(C)C)C[C@@H](C(=O)O)[C@H]4CC[C@@]3(C2)[C@H]1O	-6.46

List the reported activity change, negative = inhibition of each compound below.
1. CNC[C@H](O)c1ccc(O)cc1
2. C/C=C1\C[C@H](C)[C@@](O)(CO)C(=O)OCC2=CCN3CC[C@@H](OC1=O)[C@@H]23
3. CN1[C@@H]2CCC[C@H]1CC(=O)C2

A:
[-0.0081, 0.17, -2.47]

List the reported activity change, negative = inhibition of each compound below.
1. CN[C@@H](C)[C@H]1CC[C@@H](N)[C@@H](O[C@@H]2[C@@H](O)[C@@H](O[C@H]3OC[C@@](C)(O)[C@@H](NC)[C@@H]3O)[C@H](N)C[C@@H]2N)O1 (tested in a mixture with another compound)
2. CC(=O)O[C@H]1CC[C@@]2(C)C(=CC[C@@H]3[C@H]2CC[C@]2(C)C(=O)CC[C@H]32)C1
3. CN1C[C@H](CO)C=C2c3cccc4[nH]cc(c34)C[C@@H]21
4. CC[C@@H]1[C@@H]2C[C@H]3[C@H]4N(C)c5ccccc5[C@@]45C[C@@H]([C@@H]2[C@@H]5O)N3[C@H]1O

A:
1. -2.96
2. -0.861
3. 0.712
4. -1.86

* * *

Could you please report measured max response for the items listed next?
Study target: Retinoic acid receptor RXR-alpha (Homo sapiens) (UniProt P19793)
Sequence (P19793 whole entry, looked up): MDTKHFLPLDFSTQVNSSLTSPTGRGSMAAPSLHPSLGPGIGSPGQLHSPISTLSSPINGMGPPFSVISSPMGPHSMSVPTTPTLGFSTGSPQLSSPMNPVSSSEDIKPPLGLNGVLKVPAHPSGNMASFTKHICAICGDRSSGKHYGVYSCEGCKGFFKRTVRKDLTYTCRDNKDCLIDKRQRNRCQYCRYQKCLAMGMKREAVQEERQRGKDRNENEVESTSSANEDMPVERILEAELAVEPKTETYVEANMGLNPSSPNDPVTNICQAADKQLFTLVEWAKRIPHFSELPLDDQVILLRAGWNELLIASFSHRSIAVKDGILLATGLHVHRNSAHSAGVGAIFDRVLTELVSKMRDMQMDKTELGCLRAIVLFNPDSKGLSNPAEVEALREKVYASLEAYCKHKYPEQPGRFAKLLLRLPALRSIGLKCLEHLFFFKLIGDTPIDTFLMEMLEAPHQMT
Test details: qHTS assay for small molecule antagonists of retinoid X receptor alpha signaling (AID 588546);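 further: cells stimulated with 9-cis-retinoic acid as agonist; on the % scale 0 is the no-effect control and ±100 the full control effect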
Conditions used: HEK293T RXRa-UAS-bla, beta-lactamase ratio, antagonist mode
Inconclusive results are not listed. The source made the active and inactive calls. Calls come from the whole dose curve; as a rule, active = well fitted inhibition curve with a large enough effect in the signal ratio, with a control signal flat (not every such curve was filed as active); inconclusive = small, poorly fitted or top-dose-only effect, or effect the other way, or a change in a side signal; inactive = no such curve, though single readings can be large or run the other way; the % refers to the signal ratio.

Example cases with answers are listed next.
> print(dat)
                                   compound       assay.result
1                                 C=CC(C)=O   8.07% (inactive)
2  ClC1=C(Cl)C2(Cl)C3C4C=CC(C4)C3C1(Cl)C2(Cl)Cl (stereo not given)  -13.5% (inactive)
3                           CCN(CC)c1ccccc1    4.5% (inactive)
4                      CCCCCCCCCc1ccc(O)cc1  0.938% (inactive)
5                        CC(C)(C)OOC(C)(C)C   11.6% (inactive)

List the reported max response of each compound below.
1. OCC(Br)CBr (stereo not given)
2. CCc1cccc(CC)c1N(COC)C(=O)CCl
3. ClC1=C(Cl)C2(Cl)C3C(Cl)C=CC3C1(Cl)C2(Cl)Cl (stereo not given)
4. Clc1nc(Cl)nc(Nc2ccccc2Cl)n1
5. CCCC(=O)Cl
6. C[C@H]1CCCC(=O)CCC/C=C/c2cc(O)cc(O)c2C(=O)O1
7. S=C=Nc1cccc2ccccc12

A:
1: 1.29% (inactive); 2: -7.04% (inactive); 3: -17.9% (inactive); 4: 8.47% (inactive); 5: 15.7% (inactive); 6: -20.8% (inactive); 7: 3.59% (inactive)
